# targetOrTestSystem: SAP1 (Anopheles gambiae, UniProt Q7Q3U7)
# Sequence (Q7Q3U7 18-127): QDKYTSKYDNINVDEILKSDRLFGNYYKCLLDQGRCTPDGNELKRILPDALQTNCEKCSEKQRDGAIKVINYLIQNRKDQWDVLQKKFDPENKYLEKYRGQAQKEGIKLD
measurementType: pIC50
By convention, pIC50 is the negative base-10 log of a molar concentration.

Problem: For the compound shown here, CC1(C)C(C=C(Cl)Cl)C1C(=O)OC(C#N)c1cccc(Oc2ccccc2)c1 (centres unmarked) , give the reported pIC50.
Solution: 5.04

Hello, the source for this data is paper PMC6974402, in case you need it.
